- System: RXF 631
- experiment: NCI tumour cell line growth inhibition, 48 h
Calls of active or inactive are those of the source. No stated cut-off is given here; in the data, active = GI50 up to about 1.1 µM and inactive = higher.
observed-property: GI50

Here is how some compounds turned out for GI50.
CO[C@H](c1ccccc1)[C@H](C)N(C)c1ccc2ccccc2c1C1=NC(C)(C)CO1
15 µM (inactive)
S=C(Nc1ccccc1)Nc1[nH]c(=S)sc1-c1nc2ccccc2[nH]1
65.6 µM (inactive)
CC12CCC3(OCCO3)C(OC(=O)c3ccccc3)=C1CCC21OCCO1 (stereo not given)
> 100 µM (inactive)
COc1ccc(/N=N/c2c(-c3ccccc3)nn(C(=O)CC(=O)Nc3ccc(OC)cc3)c2-c2ccccc2)cc1
59.3 µM (inactive)

Given the compound CCCCCCCCC1C(C)c2c([nH]c3ccccc23)C2C(=O)N(c3ccccc3)C(=O)C21 (stereo not given) , what is its reported GI50?
3.41 µM (inactive)

###

- Tested on: A498
- experiment: NCI tumour cell line growth inhibition, 48 h
Activity calls are given as the source filed them. Cut-off read from the data, not from the text of the source: active = GI50 up to about 1.1 µM and inactive = higher.
Log the outcome using a class from class 1 for active, class 0 for inactive

For orientation, consider the following solved cases.
N=C(N)SCc1ccc(Cl)c2ccccc12.O=[N+]([O-])c1ccc(O)c([N+](=O)[O-])c1
class 0
CC(C)C1CC=NN1C(=O)OC(C)(C)C (stereo not given)
class 0
CN(CCNC(=O)c1c[nH]c2c1ccc1ccccc12)CCNC(=O)c1c[nH]c2c1ccc1ccccc12
class 0
O=C1CSC(c2ccccc2O)N1c1ccc(-c2ccc(-n3c(-c4ccccc4)nc4ccccc4c3=O)cc2)cc1 (stereo not given)
class 0
NNC(=O)C(=O)N/N=C1\CCC(=O)CC1C(=O)CCC(=O)Nc1ccc(Cl)cc1 (stereo not given)
class 0
Cc1ccc2c(n1)C(=O)c1cc(C)c(C)cc1C2=O
class 0
CCOP(=O)(OCC)C(C#N)Cc1ccco1 (stereo not given)
class 0
OCCn1cnc2c(SCc3ccccc3)ncnc21
class 0

Assay result, entry C=C(C)[C@@H]1CCC2=C(CC[C@]3(C)[C@@H]([C@@H](CCC=C(C)C)C(=O)O)[C@H](O)C[C@@]23C)[C@@]1(C)CCC(=O)O — outcome?
class 0

Param item: N#C/C(=C\c1c(O)cc(O)cc1O)C(N)=O
class 0

Param item: N#Cc1nc(COCCOCc2ccccc2)oc1N
class 0

Param item: COc1cc(C2C3=C(NC(=O)C2C#N)c2ccc4ccccc4c2OCC3)cc(OC)c1OC (stereo not given)
class 0

Param item: O=P(NC12CC3CC(CC(C3)C1)C2)(N1CC1)N1CC1
class 0

Param item: COc1cc2c3c(cc(Cl)nc3c1OC)C(O)(CC(=O)c1ccccc1)C(=O)N2 (stereo not given)
class 0

Param item: C[C@H]1CC(=O)[C@@]2(O)C#C/C=C\C#C[C@@H]3Nc4c(cc(O)c5c4C(=O)c4ccccc4C5=O)[C@]24O[C@]314
class 1

Param item: COc1cc(/C=C2/SC(c3ccccc3)N(c3cccc(NC(C)=O)c3)C2=O)cc(OC)c1OC (stereo not given)
class 0

Param item: NC(=S)N/N=C(/C(=O)Nc1nc2ccc([N+](=O)[O-])cc2s1)C1C(=O)NC(=S)NC1=O
class 0

Param item: CCOC(=O)c1c[nH]c2c(ccc3nn(C)nc32)c1=O
class 0

Param item: CC(SC(=S)N(C)C)C(=O)Nc1nnc(-c2ccc(Cl)cc2)o1 (stereo not given)
class 0

Param item: COc1ccc(C2=C(N)c3ccccc3C2=O)cc1
class 0

Param item: C[N+](C)(C)CC(=O)N/N=C(/Cc1nc2ccc([N+](=O)[O-])cc2nc1O)C(=O)Nc1cc(C(F)(F)F)ccc1Cl
class 0

Param item: CN(C)/C=[N+]1/[C@@H](Cc2ccccc2)C(=O)O[B-]1(F)c1ccccc1 (stereo not given in full)
class 0

###

- System: LOX IMVI
- experiment: NCI tumour cell line growth inhibition, 48 h
Activity calls are given as the source filed them. No stated cut-off is given here; in the data, active = GI50 up to about 1.1 µM and inactive = higher.
observed-property: GI50

Cc1ccc(NC(=O)c2cc(S(=O)(=O)Nc3nc4cccnc4[nH]3)c(SSc3cc(Cl)c(C(=O)Nc4ccc(C)cc4)cc3S(=O)(=O)Nc3nc4cccnc4[nH]3)cc2Cl)cc1
> 100 µM (inactive)
COc1ccc2oc(C(=O)O)c3c2c1CCC3
> 100 µM (inactive)
CC(C)C1CC=NN1C(=O)OC(C)(C)C (stereo not given)
> 100 µM (inactive)
NC(=O)OCC(COc1ccc(Cl)cc1)OC(=O)c1ccccc1Cl (stereo not given)
13.8 µM (inactive)
Cn1c(=O)c2nc(CCCc3ccc([N+](=O)[O-])cc3)[nH]c2n(C)c1=O
> 100 µM (inactive)
C/C=C/C=C\C1OC(O)([C@H](CC)C(=O)NC/C=C/C=C(\C)[C@H](OC)C(C)C2OC(\C=C/C=C/C=C(\C)C(=O)c3c(O)ccn(C)c3=O)[C@H](O)[C@@H]2O)C(O)C(O)C1(C)C (stereo not given in full)
69.5 µM (inactive)
CC12CC3CC/C(=N\O)C(C1)C3(N1CCOCC1)C/C2=N/O (stereo not given)
> 100 µM (inactive)
CC(=O)N1C(C(=O)NC2CCCCC2)CSC1c1ccccc1 (stereo not given)
> 100 µM (inactive)

Find GI50 (LOX IMVI) for the entry CC(C)C(NC(=O)Oc1ccccc1)C(=O)NC1c2c(Br)sc(Br)c2C(=O)C1O (stereo not given)
4.98 µM (inactive)

Param item: CCN(CC)CCNC(=O)c1ccc(I)cc1
> 100 µM (inactive)

###

GI50 overview
- Tested on: MDA-N
- experiment: NCI tumour cell line growth inhibition, 48 h
Active and inactive are the calls of the source. Rule as the data show it: active = GI50 up to about 1.1 µM and inactive = higher.

Here is how some compounds turned out for GI50.
O=C1C(Br)=Cc2c(Cl)sc(Cl)c21
2.44 µM (inactive)
O=C1OC(C(O)CO)C(O)=C1O (configuration not stated)
> 100 µM (inactive)
COC(=O)C1=COC(OC2OC(CO)C(O)C(O)C2O)C2C3CN4CCc5c([nH]c6ccccc56)C4(CC12)O3 (configuration not stated)
> 100 µM (inactive)
Cc1cc2c(cc1C)[n+]([O-])c(NCCCN(C)C)c(C#N)[n+]2[O-]
> 100 µM (inactive)
CC(Nc1cc(Cl)cc(Cl)c1)c1ccncc1 (configuration not stated)
21.3 µM (inactive)
CCCCCCCCNC(=O)C1=C(C)NC(C)=C(C(=O)NCCCCCCCC)C1
89.5 µM (inactive)

Given the compound N#CC(=S)Nc1cccc(Cl)c1 , what is its reported GI50?
44.3 µM (inactive)

###

- Tested on: OVCAR-3
- experiment: NCI tumour cell line growth inhibition, 48 h
Activity calls are given as the source filed them. Cut-off read from the data, not from the text of the source: active = GI50 up to about 1.1 µM and inactive = higher.
GI50 overview

Here is how some molecules turned out for GI50.
COCNC(=NC#N)NCOC
> 100 µM (inactive)
Cc1nn(C(=O)c2ccccc2O)c2c1C(c1ccc(O)cc1)SC(=N)N2 (centres undefined)
> 2.66 µM (inactive)
NC(=O)NC(=O)c1cccc(CNc2ccc(C(=O)N[C@@H](CCC(=O)O)C(=O)O)cc2)n1
> 100 µM (inactive)

Given the molecule CC(Nc1ccc(S(=O)(=O)NC(=N)N)cc1)c1c2ccccc2nc2ccccc12 (centres undefined) , what is its reported GI50?
> 10 µM (inactive)

Param item: O=c1oc2c(O)c(O)cc3c(=O)oc4c(O)c(O)cc1c4c23
29.9 µM (inactive)

Param item: CCC(CC)n1cc(C(=O)NC(=O)NCCCCCOC(=O)CCCCCCCCCCC(=O)OCCCCCNC(=O)NC(=O)c2cn(C(CC)CC)c(=O)[nH]c2=O)c(=O)[nH]c1=O
> 100 µM (inactive)

Param item: O=C(/C=C/c1ccc(-c2ccccc2[N+](=O)[O-])o1)NCc1ccc(C(=O)NCCc2ccccc2)cc1
> 100 µM (inactive)

Param item: N=C(N)SCc1ccc(Cl)c2ccccc12.O=[N+]([O-])c1ccc(O)c([N+](=O)[O-])c1
8.95 µM (inactive)

Param item: Nc1nc2c(c(-c3ccccc3Cl)n1)COC/C2=C\c1ccccc1Cl
17.4 µM (inactive)

###

- System: U-251
- experiment: NCI tumour cell line growth inhibition, 48 h
Calls of active or inactive are those of the source. Cut-off read from the data, not from the text of the source: active = GI50 up to about 1.1 µM and inactive = higher.
Log the outcome using a class from 1 for active, 0 for inactive

COC1C(OC(N)=O)C(O)C(Oc2ccc3c(O)c(NC(=O)c4ccc(O)c(CC=C(C)C)c4)c(=O)oc3c2C)OC1(C)C (stereo not given)
0
CN1c2ccccc2C(=O)NC12CCNCC2
0
CC12CC3CC/C(=N\O)C(C1)C3(N1CCOCC1)C/C2=N/O (stereo not given)
0
Nc1nc(N)c2cc(CNc3ccc(C(=O)NC(CC(=O)O)C(=O)O)c(Cl)c3)ccc2n1 (stereo not given)
1
Cc1cc(O)c2c3c1C(=O)Oc1c(CO)c(O)c(C(=O)O)c(c1O3)C=NN=Cc1c3c(c(CO)c(O)c1C(=O)O)OC(=O)c1c(C)cc(O)c(c1O3)C=NN=C2
0

Assay result, entry COC(C/C(=C/CO[Si](C(C)C)(C(C)C)C(C)C)C(=O)Nc1ccccc1I)OC — outcome?
0

Param item: CCOC(=O)c1cnc2cc3cccccc3n2c1=O
0

Param item: COc1cc(/C=C\c2ccc(Cl)cc2)cc(OC)c1OC
1

Param item: N#Cc1c(-c2ccc(Cl)c(Cl)c2)c(-c2ccc(Cl)c(Cl)c2)nn(CC(=O)O)c1=O
0

Param item: COc1cc2c3c(cc(Cl)nc3c1OC)C(O)(CC(=O)c1ccccc1)C(=O)N2 (stereo not given)
0
